meta.source: paper PMC7774954

SYSTEM UNDER TEST: PTPN13 PDZ 2 (Homo sapiens)
Construct: made in house; host or cells: E. coli
Sequence (Q12923 1368-1452 limits assumed): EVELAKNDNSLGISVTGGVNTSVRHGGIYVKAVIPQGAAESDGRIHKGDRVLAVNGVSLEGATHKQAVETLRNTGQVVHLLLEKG
MEASUREMENT PROTOCOL: Holdup assay, PTPN13-2
Format: binding
EXPERIMENTAL CONTEXT: PDZ domain PTPN13-2
ASSAY METRIC: BI
Give bare numbers.

The recorded BI for CC[C@H](C)[C@H](NC(=O)[C@H](CCC(N)=O)NC(=O)[C@@H](NC(=O)[C@H](Cc1c[nH]cn1)NC(=O)[C@H](CCC(N)=O)NC(=O)[C@H](CC(=O)O)NC(=O)[C@H](CCC(=O)O)NC(=O)[C@H](CC(=O)O)NC(=O)CCC(=O)NCCCOCCOCCOCCCNC(=O)CCCC[C@@H]1SC[C@@H]2NC(=O)N[C@@H]21)[C@@H](C)O)C(=O)N[C@H](C(=O)N[C@@H](CCCCNC(C)=O)C(=O)N[C@H](C(=O)O)C(C)C)[C@@H](C)O is 0.044
